Measured values drawn from paper PMC9090415 for this set.

biological target: P. falciparum apicoplast DNA polymerase (Pf-apPOL) (Plasmodium falciparum, UniProt Q8ILY1); experiment: Fluorescence-based high-throughput DNA polymerase assay (molecular beacon), primary screen and dose-response; format: biochemical; settings: DRC-2; 180'; concentration 80;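 note: test concentration in µM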
Sequence (Q8ILY1 entry or part of it): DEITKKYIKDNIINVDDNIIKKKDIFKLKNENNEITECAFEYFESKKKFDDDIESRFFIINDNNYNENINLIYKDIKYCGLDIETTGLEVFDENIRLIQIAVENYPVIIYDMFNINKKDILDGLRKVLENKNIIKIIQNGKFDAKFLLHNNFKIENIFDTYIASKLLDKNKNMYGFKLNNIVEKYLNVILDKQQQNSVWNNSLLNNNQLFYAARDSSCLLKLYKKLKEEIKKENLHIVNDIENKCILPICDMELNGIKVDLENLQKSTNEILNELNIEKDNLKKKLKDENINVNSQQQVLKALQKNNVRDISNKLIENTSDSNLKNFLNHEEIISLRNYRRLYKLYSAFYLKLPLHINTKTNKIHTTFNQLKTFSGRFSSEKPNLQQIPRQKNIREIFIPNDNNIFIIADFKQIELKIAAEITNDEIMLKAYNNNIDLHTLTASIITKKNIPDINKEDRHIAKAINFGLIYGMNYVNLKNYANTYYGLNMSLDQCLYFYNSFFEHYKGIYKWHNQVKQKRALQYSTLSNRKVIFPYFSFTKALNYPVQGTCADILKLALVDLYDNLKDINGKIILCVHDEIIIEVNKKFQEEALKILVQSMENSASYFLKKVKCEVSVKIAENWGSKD
Reported endpoint: % inhibition apPOL 180' (%)
Answers are plain numbers, in %.

Below, 8 compounds whose answers are already recorded.
- Compound: "COCC(=O)Nc1c(-c2cccc(F)c2)nc2cc(C)ccn12"
  Readout unit: "%"
  % inhibition apPOL 180': 77
- Compound: "CC1(C)CC(=O)C2=C(C1)OC1=C(C(=O)CC(C)(C)C1)C2c1ccc(O)cc1"
  Readout unit: "%"
  % inhibition apPOL 180': 70
- Compound: "Cc1cc(C)c2c(c1)C1C=CCC1C(c1ccc(C(=O)O)cc1)N2 (centres unmarked)"
  Readout unit: "%"
  % inhibition apPOL 180': 83
- Compound: "O=C(NC(C(Cl)Cl)S(=O)(=O)c1ccccc1)c1ccccc1 (centres unmarked)"
  Readout unit: "%"
  % inhibition apPOL 180': 58
- Compound: "CCCCCCCCCCCCCCCCCC(=O)CCN(C)C"
  Readout unit: "%"
  % inhibition apPOL 180': 73
- Compound: "Cc1ccc(NC(=O)C2CCN(C(=O)c3cc4ccsc4[nH]3)CC2)c(Br)c1"
  Readout unit: "%"
  % inhibition apPOL 180': 69
- Compound: "COc1cccc(C(=O)N2CCc3c(nc4cc(-c5ccccc5)[nH]n4c3=O)C2)c1OC"
  Readout unit: "%"
  % inhibition apPOL 180': 69
- Compound: "COc1ccccc1CC(=O)N1CCc2c(nc3cc(-c4ccccc4Cl)[nH]n3c2=O)C1"
  Readout unit: "%"
  % inhibition apPOL 180': 52

Quick one: give me % inhibition apPOL 180' for each item below, same order please.
1. O=C(O)c1cccc(N2N=C(C(F)(F)F)/C(=C/c3ccc(-c4ccccc4[N+](=O)[O-])o3)C2=O)c1
2. O=C1CCCC2=C1C(c1ccccn1)C1=C(CCCC1=O)O2
3. COc1ccc(-c2cc(=O)c3cc(O)ccc3o2)cc1OC
4. O=C(CCc1csc(NC(=O)Nc2ccccc2)n1)Nc1nc2ccccc2s1
5. O=C1NCCCn2cc(S(=O)(=O)Nc3ccccc3)cc21

Reply text:
84
60
68
46
76

The following compounds each have a reported value; give each one's % inhibition apPOL 180'.
1. CCOc1cccc2cc(C(=O)Nc3nnc(-c4ccno4)o3)oc12
2. CCCN1COc2ccc3c(=O)c(-c4ccccc4)coc3c2C1
3. O=C(Cc1cc(=O)[nH]c(SCc2ccccc2)n1)Nc1ccc2c(c1)OCO2
4. Cc1cccc(-c2nnc3ccc(NS(=O)(=O)c4ccc(C)c(C)c4)nn23)c1

Reply text:
[72, 39, 67, 68]
